Assay: Acute toxicity (LD50 in mice)
Settings: in vivo, sc; LD50 mouse s.c. / anorectic ED50 rat s.c.; read-out: Therapeutic ratio LD50/ED50
Binarize selectivity ratio at 400; below is Satisfied, at or above is Not satisfied.

Example entries and their recorded answers appear below.
INSERT INTO assay_data (compound, category) VALUES
  ('Cc1c2c(nc3ccccc13)CCNCC2.Cl.Cl [C, dihydrochloride]', 'Not satisfied'),
  ('Cc1c2c(nc3ccc(Cl)cc13)CCNCC2.Cl.Cl [F, dihydrochloride]', 'Satisfied'),
  ('Cc1c2c(nc3ccccc13)C(O)CNCC2.Cl.Cl (centres unmarked) [H, dihydrochloride]', 'Not satisfied'),
  ('CCCc1c2c(nc3ccccc13)CCNCC2.Cl.Cl [Compound E, dihydrochloride]', 'Satisfied'),
  ('Cc1c2c(nc3ccccc13)CCCNC2.Cl.Cl [B, dihydrochloride]', 'Satisfied');

Lookup: Determine whether this compound shows selectivity ratio lower than 400 (ties excluded): CCN1CCc2nc3ccccc3c(C)c2CC1.Cl.Cl [A, dihydrochloride]
Found: Satisfied

Lookup: Determine whether this compound shows selectivity ratio lower than 400 (ties excluded): CCOC(=O)N1CCc2nc3ccccc3c(C)c2CC1
Found: Not satisfied
